Test system: NCI-H322M lung
Experiment: NCI-60 one-dose screen, 48 h (100 = growth as untreated, 0 = no growth, -100 = all killed)
Details: 10 µM unless noted
The panel holds about 83,000 compounds, 20% with a hit somewhere; the sample as a whole holds those more often.
Parameter: growth. Scope: all listed entries.
Parameter: growth (%)

>>> measured_value("Cc1nc2ccccc2c(/C=C/c2ccc(Br)cc2)c1C(=O)/C=C/c1ccccc1")
35.3
>>> measured_value("COc1ccc(C(=O)/C=C/Nc2cc(-c3ccccc3)nn2-c2ccccc2)cc1")
93.2
>>> measured_value("O=C(Nc1ncc(Cc2ccccc2)s1)c1cc(-c2ccccc2)nc2ccccc12")
99.1
>>> measured_value("COc1ccc(C(=O)/C=C/c2ccc(C)cc2)cc1S(N)(=O)=O")
36.1
>>> measured_value("O=C(/C=C/c1ccco1)c1ccc(Nc2ccnc3cc(Cl)ccc23)cc1")
39.3

---

growth by entry:
Test system: MCF7 breast
Assay: NCI-60 one-dose screen, 48 h (100 = growth as untreated, 0 = no growth, -100 = all killed)
Conditions: 10 µM unless noted
Protocol: Growth inhibition of the MCF7 human tumor cell line is measured as a screen for anti-cancer activity. Cells are grown in 96 well plates and exposed to the test compound for 48 hours. Compounds are tested at a single concentration, which is 10^-5 M for most compounds. The reported endpoint is percent growth (GI% or GIPRCNT), where numbers from 0 - 100% represent growth inhibition, and numbers from -100% - 0 represent cell death. For example, a value of 40 represents 60% growth inhibition. […]
This is part of a sample that, as a whole, favours compounds with a hit. Of some 83,000 tested, about 20% had one in any assay.
Parameter: growth (%)

>>> measured_value("COc1ccc(/C=C2/CCc3cc4ccc(OC)cc4[o+]c32)c(O)c1")
48.1
>>> measured_value("Oc1ccc(C2OCCO2)c2cccnc12")
7.84
>>> measured_value("COc1cc2c(c(OC)c1OC)CCC(c1cccc(NC(=O)c3cccc(Cl)c3)c1)O2 (stereo unspecified)")
84.4
>>> measured_value("CC(C)n1nc(-c2ccc3oc(N)nc3c2)c2c(N)ncnc21")
-4.22
>>> measured_value("COc1ccc(-c2cc(-c3ccc(N(C)C)cc3)nc(NC(=O)c3cccnc3)n2)cc1")
81.9
>>> measured_value("O=C(Oc1ccccc1)c1cc(O)c(O)c(O)c1")
79.3

---

System: PC-3 prostate
Experiment: NCI-60 one-dose screen, 48 h (100 = growth as untreated, 0 = no growth, -100 = all killed)
Settings: 10 µM unless noted
About 83,000 compounds went through this panel and 20% of them were active in at least one assay; those are over-represented in the sample as a whole.
Parameter: growth (%)

>>> measured_value("O=C(/C=C/c1ccco1)c1ccc(Nc2ccnc3cc(Cl)ccc23)cc1")
80.5
>>> measured_value("COc1ccc(CNc2ccc3nc(CCC4CCCCC4)[nH]c3c2)cc1")
59.1
>>> measured_value("CC(=O)Cc1nsc(NC(=O)c2cc(-c3cc(Cl)ccc3Cl)oc2C)n1")
96.8
>>> measured_value("C=C(C)Cn1c(SCC(=O)c2cccs2)nc2sc3c(c2c1=O)CCCC3")
48.6
>>> measured_value("CC(=O)Oc1ccccc1C(=O)N(Cc1ccc2c(Cl)cc(Cl)c(O)c2n1)c1ccccc1")
34
>>> measured_value("Cc1ccc(-c2nc(C#N)c(S(=O)(=O)n3nc(C)cc3N)o2)cc1")
85
>>> measured_value("Cc1cc2nc(C(Cl)Cl)nc(-c3ccccc3)n2n1")
65.1
>>> measured_value("C=C(C)[C@@H]1CC[C@]2(COC(=O)c3cccnc3)CC[C@]3(C)[C@H](CC[C@@H]4[C@@]5(C)CCCN(C(=O)c6cccnc6)C(C)(C)[C@@H]5CC[C@]43C)[C@@H]12")
14.6
>>> measured_value("CC(C)(C)[C@H](OCc1cn([C@H]2C[C@@H](O)[C@@H](CO)O2)c(=O)[nH]c1=O)c1ccc(C#Cc2ccccc2)cc1[N+](=O)[O-]")
19.3

---

Each entry below carries its reported growth.
Tested on: SK-MEL-2 melanoma
Test: NCI-60 one-dose screen, 48 h (100 = growth as untreated, 0 = no growth, -100 = all killed)
Conditions: 10 µM unless noted
This is part of a sample that, as a whole, favours compounds with a hit. Of some 83,000 tested, about 20% had one in any assay.
Parameter: growth (%)

>>> measured_value("Oc1c(Cl)cc(Cl)c2ccc(CN3CCNCC3)nc12")
66.8
>>> measured_value("CN1CC(c2ccccc2)C(C(=O)c2ccc(Br)cc2)C12C(=O)Nc1ccccc12 (stereo not drawn)")
99.2
>>> measured_value("CCN1CCN(C(=O)[C@]23CC[C@@H](C)[C@H](C)[C@@H]2C2=CC[C@@H]4[C@@]5(C)C/C(=C/c6ccncc6)C(=O)C(C)(C)[C@@H]5CC[C@@]4(C)[C@]2(C)CC3)CC1")
33.5
>>> measured_value("O=C(OCC(O)(CO)C(=O)NC12CC3CC(CC(C3)C1)C2)c1ccc(Cl)cc1 (stereo not drawn)")
86.3
>>> measured_value("COc1nc2ccccc2cc1/C=[N+](\\[O-])c1ccccc1")
87.8
>>> measured_value("COc1cccc(C2C(C#N)=C(N)Oc3c2ccc2ccccc32)c1 (stereo not drawn)")
40
>>> measured_value("COC(=O)c1c(C)nc(C)c2c1C(=O)C(Br)=C(NCCN1CCOCC1)C2=O")
99.4
>>> measured_value("CC(C)(C)CC(C)(C)Nc1c(-c2c(O)c3ccccc3oc2=O)nc2sccn12")
96.8
>>> measured_value("C=CC(=O)NCc1cccc(Nc2ncc(Br)c(NCCCNC(=O)C3CCC3)n2)c1")
-50
>>> measured_value("C=C(CNCCO)[C@@H]1CC[C@]2(CO)CC[C@]3(C)[C@H](CC[C@@H]4[C@@]5(C)CCC(NCCO)C(C)(C)[C@@H]5CC[C@]43C)[C@@H]12 (stereo partly drawn)")
96.1
>>> measured_value("Nc1n[nH]c2cccc(C#Cc3cccc(C(=O)Nc4ccc(Cl)c(C(F)(F)F)c4)c3)c12")
39.2
>>> measured_value("CCCCC1=C(Br)C(=O)c2ncccc2C1=O")
111
>>> measured_value("Cc1ccc(C2(C)NC(=O)N(CC(=O)Nc3cccc(C)c3)C2=O)cc1 (stereo not drawn)")
84.9
>>> measured_value("COC12C=C/C(=C(/C(=O)OCc3ccccn3)C(=O)CCCCCCCCC3(OC)C=C/C(=C(/C(=O)OCc4ccccn4)C(=O)CCCCCCCC1)O3)O2")
10.8
>>> measured_value("CCOC(=O)c1c(N)sc2cc(O)ccc12")
110
>>> measured_value("CO[C@H]1/C=C/O[C@@]2(C)Oc3c(C)c(O)c4c(O)c(c5c(nc6cc(C)ccn65)c4c3C2=O)NC(=O)/C(C)=C\\C=C\\[C@H](C)[C@H](O)[C@@H](C)C(O)[C@@H](C)[C@H](OC(C)=O)[C@@H]1C (stereo partly drawn)")
93.1
>>> measured_value("COc1ccc(C2CC(=O)Oc3c(OC)c4c(c(OC)c32)OCO4)cc1 (stereo not drawn)")
101
>>> measured_value("Cc1nc2cccc(NCc3ccc(C(=O)NO)cc3)c2c(=O)n1-c1ccccc1")
61.7

---

Item-by-item account of growth
Test system: KM12 colon
Test: NCI-60 one-dose screen, 48 h (100 = growth as untreated, 0 = no growth, -100 = all killed)
Settings: 10 µM unless noted
Method: Growth inhibition of the KM12 human tumor cell line is measured as a screen for anti-cancer activity. Cells are grown in 96 well plates and exposed to the test compound for 48 hours. Compounds are tested at a single concentration, which is 10^-5 M for most compounds. The reported endpoint is percent growth (GI% or GIPRCNT), where numbers from 0 - 100% represent growth inhibition, and numbers from -100% - 0 represent cell death. For example, a value of 40 represents 60% growth inhibition. […]
Compounds without any hit were thinned out: in the full panel of roughly 83,000, 20% have a hit. The source made the active and inactive calls. Rule for the calls: active = growth percent below 10; inactive = the rest.
Parameter: growth

>>> measured_value("COC(=O)c1ccc(-n2cc(CCCOS(=O)(=O)c3ccc(F)cc3)nn2)cc1")
"100% (inactive)"
>>> measured_value("Cc1nn(C)c2ncnc(Nc3ccccc3Br)c12")
"108% (inactive)"
>>> measured_value("COc1cc(C2=Nc3c(N)nc(N)nc3NC(c3cccc(Nc4ccnc5cc(C(F)(F)F)ccc45)c3)C2)cc(OC)c1OC (stereo not given)")
"66.4% (inactive)"
>>> measured_value("O=C1NCCN1/N=C/c1c(Cl)n(Cc2ccc(Cl)cc2)c2ccccc12")
"110% (inactive)"
>>> measured_value("COc1ccc(CNc2c3ccccc3nc3ccccc23)cc1OC")
"31.6% (inactive)"
>>> measured_value("Cc1c2cnccc2c(C)c2c1c1cc(C(=O)O)ccc1n2C")
"5.47% (active)"
>>> measured_value("O=C(Nc1ncc(Cc2ccccc2)s1)c1ccc2c(c1)OCCO2")
"9.34% (active)"
>>> measured_value("C=CC(=O)NCc1cccc(Nc2ncc(Br)c(NCCCNC(=O)C3CCC3)n2)c1")
"4.95% (active)"
>>> measured_value("Cn1ccnc1C(=O)/C=C/c1ccc(C(=O)Nc2ccccc2F)cc1")
"13.8% (inactive)"
>>> measured_value("COc1cc(OCc2cccc(-c3ccc4c(c3)OCCO4)c2C)cc(OC)c1C=O")
"78.9% (inactive)"
